pKi: −log10 of the molar value.
Here's a batch of molecules along with measured pKi for JAK3 (Homo sapiens, UniProt P52333).

molecule: CCOC(=O)c1cc(N[C@@H](C)C(=O)NCC(F)(F)F)nc(-c2c[nH]c3ncncc23)n1 [Compound 2]
pKi: 5.30 to 6.30
//
molecule: C[C@H](Nc1cc(C(=O)N2CCOCC2)nc(-c2c[nH]c3ncncc23)n1)C(=O)NCC(F)(F)F [Compound 12]
pKi: > 6.30
//
molecule: O=C(NCC(F)(F)F)C(Nc1nc(-c2c[nH]c3ncncc23)ncc1F)c1cccnc1 (centres unmarked) [Compound 67]
pKi: 5.30 to 6.30
//
molecule: O=C(NCC(F)(F)F)C1(Nc2nc(-c3c[nH]c4ncncc34)ncc2F)CCCCC1 [Compound 62]
pKi: > 6.30
//
molecule: COCCNC(=O)c1cc(N[C@@H](C)C(=O)NCC(F)(F)F)nc(-c2c[nH]c3ncncc23)n1 [Compound 14]
pKi: > 6.30
//
molecule: C[C@H](Nc1nc(-c2c[nH]c3ncncc23)nc2ccccc12)C(=O)NCC(F)(F)F [Compound 34]
pKi: > 6.30
//
molecule: O=C(CCn1ccc2cnc(-c3c[nH]c4ncncc34)nc21)NCC(F)(F)F [Compound 111]
pKi: > 6.30
//
molecule: CN(c1nc(-c2c[nH]c3ncncc23)ncc1F)C1(C(=O)NCC(F)(F)F)CC1 [Compound 99]
pKi: > 6.30
